MEASUREMENT_TARGET: T1, IFF05588
T1 chain: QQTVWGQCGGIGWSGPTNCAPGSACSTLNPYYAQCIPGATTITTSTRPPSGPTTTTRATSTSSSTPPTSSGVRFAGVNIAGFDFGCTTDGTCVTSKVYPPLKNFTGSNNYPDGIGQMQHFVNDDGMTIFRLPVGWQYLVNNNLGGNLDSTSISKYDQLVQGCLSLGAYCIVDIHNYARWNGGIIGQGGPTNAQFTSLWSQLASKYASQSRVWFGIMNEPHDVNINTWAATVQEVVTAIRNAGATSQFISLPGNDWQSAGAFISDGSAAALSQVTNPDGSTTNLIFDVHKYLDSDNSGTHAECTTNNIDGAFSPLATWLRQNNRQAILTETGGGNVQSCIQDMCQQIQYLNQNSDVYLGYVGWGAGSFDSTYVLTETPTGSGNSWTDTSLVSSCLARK
PARAMETER_MEASURED: Relative late peak area (centered, scaled, averaged over 5, 10 and 15 min)

PROTEIN | REPORTED_RESULT
IFF21372 (protein) QNLGKPVLFTDGLSPHVDASFWAHLNPTQSTWDQWGWGWIPQSCFDAANSNNVSPYDFEVFNVHYTDCGTAWVFCRHHSASLSQIDMIDLFGRLPVHERQWIRHVVAVPGGGSAYELNADVVFQGPVGTPSVFQHEVGHAVDFYKNGFQSSGTSQFLNAIQQDSCVPDDYANSNNVEDYTQVGVLSLYEIVNPGGLDPIGANWRCLVNQKNVLDGFQRDNMIPGGVCDRRWADSTIVKMGPAVPRVKRGPVGPIPQPAGLPVPGPSKAGPDVYKNLVFNATEKRNAETRQAAWQKAAKGAEA | 1.62
